system: EKVX NSCLC; assay: NCI tumour cell line growth inhibition, 48 h; in the data active means GI50 below about 0.43 µM; inactive means the rest
Classes used: True for active, False for inactive

| Molecule | Assigned Label |
| --- | --- |
| CC(=O)c1cccc(NC(=O)c2ccc(NC3=C(Cl)C(=O)N(Cc4ccccc4)C3=O)cc2)c1 | False |
| Oc1ccccc1C=Nc1ccccc1N=Cc1ccccc1O.[Cu+2] | False |
| CNCCCn1c2c(c3ccc(F)cc3c1=O)C(=O)c1cc(OC)cnc1-2 | True |
| CCOC(=O)c1nc2cc(C(F)(F)F)ccc2[n+]([O-])c1C | False |
| CC(C)(C)OC(=O)NCCCCCCCCCCn1c2c(c3ccccc3c1=O)C(=O)c1ccccc1-2 | False |
| COC(=O)[C@@H](OC)[C@@H]1Cc2cc3cc(OC4CC(OC5CC(O)C(O)C(C)O5)C(O)C(C)O4)c(C)c(O)c3c(O)c2C(=O)[C@H]1OC1CC(OC2CC(OC3CC(C)(O)C(O)C(C)O3)C(O)C(C)O2)C(O)C(C)O1 (stereo partly drawn) | True |
| C[C@]12CCc3sc(-c4cccc(F)c4)nc3C1=CC[C@@H]1[C@@H]2CC[C@]2(C)C(=O)CC[C@@H]12 | False |
| COc1ccc(C#CC2=C(c3cc(OC)c(OC)c(OC)c3)C(=O)OC2)cc1 | False |

====

system: OVCAR-3 ovarian; assay: NCI tumour cell line growth inhibition, 48 h
Measured Quantity: TGI (µM)

| Molecule | Measured Quantity | Qualifier Operator | Readout Number |
| --- | --- | --- | --- |
| CC(=O)OCCOCCN1CCN(c2c(O)c3c(c(O)c2Cl)C(=O)C=CC3=O)CC1 | TGI | = | 2 |
| Cc1cnc(SCCN2CCN(C)CC2)nc1-c1cc2ccccc2s1 | TGI | = | 24.6 |
| COC(=O)c1ccc(C)cc1CC1Cc2c(C)cccc2C1=O (stereo unspecified) | TGI | = | 16.1 |
| CN=C(NC)N(C)c1nc(=[N+](C)C)ss1 | TGI | > | 100 |
| Cc1ccc(C)c(COCCOCn2c(=O)[nH]c(=O)c3cc(Br)ccc32)c1 | TGI | > | 100 |
| COc1cc(NC(C)CCCN)c2ncccc2c1Sc1ccc(Cl)cc1 (stereo unspecified) | TGI | = | 3.28 |

====

system: MALME-3M melanoma; test: NCI tumour cell line growth inhibition, 48 h
Measured Quantity: TGI (µM)

| Compound | Measurement Unit | Qualifier Operator | Readout Number |
| --- | --- | --- | --- |
| CCn1c(=O)c2c3cc(OC(C)=O)ccc3oc2c2ccc(OC(C)=O)cc21 | µM | > | 100 |
| CC(C)(C)N=CN(C=C(c1ccccc1)c1ccccc1)C1CCCCC1 | µM | = | 35.8 |
| CC(=O)NC1=C(Sc2ccc(Cl)cc2)C(=O)c2ccccc2C1=O | µM | = | 8 |
| CCOC(=O)c1cn2c(ccc3sc4ccccc4c(=O)c32)n1 | µM | > | 100 |
| O=[N+]([O-])c1ccc(COc2cccc3cccnc23)cc1 | µM | > | 100 |
| CSc1nc(N)c2c(n1)NC(c1ccccc1)C1CCc3ccccc3C1=N2 (stereo not given) | µM | > | 100 |
| C#CC(=O)OCC#CCOC(=O)C#C | µM | = | 38 |
| Cc1[nH]c(=O)nc(N(CCO)/N=C/c2ccc(Cl)cc2)c1C(=O)Nc1ccc(Cl)cc1 | µM | = | 68.3 |
| N=C(N)SCc1ccc([N+](=O)[O-])cc1[N+](=O)[O-] | µM | = | 18.7 |
| C=CCn1c(-c2ccc(Cl)cc2Cl)csc1=Nc1c(C)n(C)n(-c2ccccc2)c1=O | µM | = | 31.4 |

====

TGI listing for selected compounds.
system: OVCAR-3 ovarian; assay: NCI tumour cell line growth inhibition, 48 h
Measured Quantity: TGI

| Compound | Target Entity | Measured Quantity | Result |
| --- | --- | --- | --- |
| Cc1nn(-c2ccccc2)c2nc3ccc(Cl)cc3c(-c3ccccc3)c12 | OVCAR-3 ovarian | TGI | > 100 µM |
| CC(=O)C1=C(C)N(c2ccccc2)C2(O)C=CC(=O)C3=C(O)c4ccccc4C(=O)C312 (stereo not given) | OVCAR-3 ovarian | TGI | 11.4 µM |
| Cc1cc(O)cc(C)c1/C=C/c1cncc(C(=O)OC(C)(C)C)c1 | OVCAR-3 ovarian | TGI | > 25 µM |
| COC(=O)/C(=C\c1c(-c2ccccc2)[nH]c2ccccc12)S(C)(=O)=O | OVCAR-3 ovarian | TGI | 3.97 µM |
| CN(C)Cc1cc(C(=O)/C=C/c2ccc(F)cc2)cc(CN(C)C)c1O | OVCAR-3 ovarian | TGI | 50.9 µM |
| S=C(c1c[nH]c2ccccc12)N1CCCCC1 | OVCAR-3 ovarian | TGI | > 100 µM |
| CCN(CC)c1ccc(/C=C/C=C(/C#N)C(N)=S)cc1 | OVCAR-3 ovarian | TGI | > 100 µM |
| O=C1C=C2CC[C@H]3[C@@H]4CC[C@H](Oc5c6ccccc6nc6ccccc56)[C@H]4CC[C@@H]3[C@H]2CC1 | OVCAR-3 ovarian | TGI | > 100 µM |
| NC(=O)CNC(=O)[C@@H]1C[C@@H](OCCC(=O)O)CN1C(=O)OCc1ccccc1 | OVCAR-3 ovarian | TGI | > 100 µM |
| CCN(CC)CCC(=O)/C=C/c1ccc(C)cc1 | OVCAR-3 ovarian | TGI | 31.1 µM |

====

tested on: SK-MEL-28 melanoma; test: NCI tumour cell line growth inhibition, 48 h
// reported GI50 per item

| Chemical String | GI50 |
| --- | --- |
| Cn1c2ccccc2c2nnc(NNCc3ccccn3)nc21 | 0.675 µM |
| CC1(C)CC(=O)c2c(ccc(C(=O)C[C@@H](N)CO)c2N)O1 | 0.595 µM |
| COc1ccc(C#CC2=C(c3cc(OC)c(OC)c(OC)c3)C(=O)OC2)cc1 | 9.28 µM |
| CC1(C)N=C(N)N=C(N)N1c1ccc(Cl)c(Cl)c1 | 11.7 µM |

====

TGI values, listed per item
tested on: EKVX NSCLC; assay: NCI tumour cell line growth inhibition, 48 h
Where a SMILES comes first, the peptide text is derived from it. The star is where a group is joined. Boc = CC(C)(C)OC(=O)*; OBn = c1ccc(CO*)cc1

| Molecule | TGI |
| --- | --- |
| Cc1nc2ccccc2c(=O)n1/N=C/c1ccc(N(C)C)cc1 | > 100 µM |
| CC(=O)OC(=C(C#N)C#N)c1nccnc1C(C)=O | > 20 µM |
| CC(=O)/C(=C\c1c(-c2ccccc2)[nH]c2ccccc12)S(=O)(=O)c1ccccc1 | > 100 µM |
| NC(=O)CNC(=O)[C@@H]1C[C@@H](OCCC(=O)O)CN1C(=O)OCc1ccccc1 | > 100 µM |
| NC(C(=O)OC(=O)c1ccccc1)C(=O)OC(=O)c1ccccc1 | > 100 µM |
| COc1ccc(-c2nc3cc(C(F)(F)F)ccc3n2CC2CCCN3CCCCC23)cc1 (stereo unspecified) | 24.5 µM |
| O=C1CCCN1CCCN=c1cc2n(-c3ccc(Cl)cc3)c3ccccc3nc-2cc1Nc1ccc(Cl)cc1 | 28.1 µM |
| O=c1[nH]c(=O)n2n1C1C=CC2CC1 | > 100 µM |
| Cc1cc2c(C(C)C)c(O)c(O)c(C=Nc3ccccc3)c2c(O)c1-c1c(C)cc2c(C(C)C)c(O)c(O)c(C=Nc3ccccc3)c2c1O | > 100 µM |
| CC(=O)N(C(C)=O)n1nc2c(n1)C(=O)c1ccccc1C2=O | > 100 µM |
| COc1ccc(-c2nnc(Nc3nc(O)c(C4=c5cc(F)ccc5=NC4=O)s3)o2)cc1 | > 100 µM |
| O=Nc1c(O)c2ccccc2c2ccccc12 | 3.32 µM |
| O=[N+]([O-])c1ccc(O)c(C=NCC2CCCN3CCCCC23)c1 (stereo unspecified) | > 100 µM |
| CC(C)CC(NC(=O)C(Cc1ccccc1)NC(=O)C(Cc1ccccc1)NC(=O)OC(C)(C)C)C(=O)OCc1ccccc1 (stereo not drawn) (Boc-Phe-Phe-Leu-OBn; configuration not given here) | > 100 µM |
| CCOC(=O)N1N(c2ccccc2)C(=O)C1(c1ccccc1)c1ccccc1 | > 100 µM |
| CCOC(=O)C1=C(C)NC(C)=C(C(=O)OCC)C1c1ccc(C)cc1 | > 100 µM |
| COc1ccc2c(c1)CCN1C3=C(CCC3)C(=O)C[C@@H]21 | > 100 µM |
| C=CCN1C[C@@H](C)N([C@@H](c2ccc(C(=O)N(CC)CC)cc2)c2cccc(OC)c2)C[C@@H]1C | > 100 µM |
| Cc1cc2c(=O)[nH]c(N)nc2nc1C | > 100 µM |
| CN(C)/C=C/c1c2c(nc3ccccc13)C(=O)c1ccccc1C2=O | 5.47 µM |
| Oc1ccccc1-c1nn2c(CCCCCCCCc3nnc4sc(-c5ccccc5O)nn34)nnc2s1 | > 88.9 µM |
| C[N+](C)(C)C(C1=CCCC1=O)c1ccccc1 (stereo unspecified) | > 100 µM |
| COc1ccc(Oc2cc(NCCC(F)(F)F)c3ncc(-c4ccc(C(=O)NC5CC5)c(C)c4)n3n2)c(F)c1F | > 100 µM |
| NC(=O)C1N=NSC1NC(=O)c1ccc([N+](=O)[O-])cc1 (stereo unspecified) | > 100 µM |
| CCCC#CCOC(=O)c1cc([N+](=O)[O-])cc([N+](=O)[O-])c1 | > 100 µM |
| CC#CCCCC1(C)CCCNC1=S (stereo unspecified) | > 10 µM |
| COC(=O)/C(=C\c1c(-c2ccccc2)[nH]c2ccccc12)S(C)(=O)=O | > 100 µM |
| CCN(CC)CC(=O)Nc1ccc2c(c1)C(=O)c1ccc(NC(=O)CN(CC)CC)cc1C2=O | > 100 µM |
| CC[C@H]1C=CCC[C@@]2(C[C@@H]3CC[C@@H]4[C@H](C(=O)OCCCCCCCCCCCCCCCC(=O)N(CCCNC(C)=O)C[C@H](CCNC(C)=O)OC(C)=O)[C@]5(CCC[C@@H](C)O5)NC(=[N+]34)N2)O1 | 1.89 µM |
| Oc1c2c(c(O)c3ccccc13)C1(N=N2)c2ccccc2Oc2ccccc21 | 28.3 µM |
| Nc1cc2nc3ccccc3oc-2cc1=O | > 64.2 µM |
| CC(=O)C1=C(C)N(c2ccccc2)C2(O)C=CC(=O)C3=C(O)c4ccccc4C(=O)C312 (stereo unspecified) | 49.1 µM |
| COc1cc(C(=O)OCCn2[nH]c(-c3ccc(Cl)cc3)nc2=S)cc(OC)c1OC | > 100 µM |
| CC(=O)c1cccc(NC(=O)c2ccc(NC3=C(Cl)C(=O)N(Cc4ccccc4)C3=O)cc2)c1 | 97.3 µM |
| O=[p+]1c2ccccc2[nH]c2ccccc21 | > 100 µM |
| CNCCCn1c2c(c3ccc(F)cc3c1=O)C(=O)c1cc(OC)cnc1-2 | 1.96 µM |
| CN(C)CCNc1nc2ccccc2c2occc12 | > 100 µM |
| COc1ccc(-c2cc(-c3ccccc3)nc3c2CC(=O)Nc2ccccc2-3)cc1OC | > 100 µM |
| COc1ccc(N(C(=O)NCCO)c2ccccc2)cc1 | > 100 µM |
| Cc1cc(C)c(C(=O)/C=C/c2ccccc2)c(C)c1 | > 100 µM |
| CC12CC(Sc3ccccc3N1)c1ccccc1O2 (stereo unspecified) | 33.4 µM |
